Data origin, for the record: the NIST ThermoML archive (doi:10.1021/je0604277)

- COND: 298.15 K; 101 kPa; Liquid mixture 1; rotated drop method
Record Satisfied whenever interfacial tension is at 10 mN/m or higher; record Not satisfied when lower.

{"COMPOUND": "CCCCn1cc[n+](C)c1.F[P-](F)(F)(F)(F)F [1-butyl-3-methylimidazolium hexafluorophosphate] + Cc1ccccc1", "GROUP LABEL": "Not satisfied"}
{"COMPOUND": "CCCCn1cc[n+](C)c1.F[P-](F)(F)(F)(F)F [1-butyl-3-methylimidazolium hexafluorophosphate] + CCOC(C)=O", "GROUP LABEL": "Satisfied"}
{"COMPOUND": "CCCCn1cc[n+](C)c1.F[P-](F)(F)(F)(F)F [1-butyl-3-methylimidazolium hexafluorophosphate] + CCCCCCCO", "GROUP LABEL": "Not satisfied"}
{"COMPOUND": "CCCCn1cc[n+](C)c1.F[P-](F)(F)(F)(F)F [1-butyl-3-methylimidazolium hexafluorophosphate] + C1CCCCC1", "GROUP LABEL": "Satisfied"}
{"COMPOUND": "CCCCn1cc[n+](C)c1.F[P-](F)(F)(F)(F)F [1-butyl-3-methylimidazolium hexafluorophosphate] + C=CCCCC", "GROUP LABEL": "Satisfied"}
{"COMPOUND": "CCCCn1cc[n+](C)c1.F[P-](F)(F)(F)(F)F [1-butyl-3-methylimidazolium hexafluorophosphate] + CCCCCCCCO", "GROUP LABEL": "Not satisfied"}
{"COMPOUND": "CCCCn1cc[n+](C)c1.F[P-](F)(F)(F)(F)F [1-butyl-3-methylimidazolium hexafluorophosphate] + CCCCCCO", "GROUP LABEL": "Not satisfied"}
{"COMPOUND": "CCCCn1cc[n+](C)c1.F[P-](F)(F)(F)(F)F [1-butyl-3-methylimidazolium hexafluorophosphate] + CCCCCO", "GROUP LABEL": "Not satisfied"}
{"COMPOUND": "CCCCn1cc[n+](C)c1.F[P-](F)(F)(F)(F)F [1-butyl-3-methylimidazolium hexafluorophosphate] + CCCCCCCC", "GROUP LABEL": "Satisfied"}
{"COMPOUND": "CCCCn1cc[n+](C)c1.F[P-](F)(F)(F)(F)F [1-butyl-3-methylimidazolium hexafluorophosphate] + c1ccccc1", "GROUP LABEL": "Not satisfied"}
{"COMPOUND": "C=Cc1ccccc1 [styrene] + CCCCn1cc[n+](C)c1.F[P-](F)(F)(F)(F)F", "GROUP LABEL": "Not satisfied"}
